- Protocol summary: Solubility in aqueous solutions of surfactants/additives and non-aqueous vehicles (Experimental Example 6)
- Assay type: physicochemical
- Condition set: glycerine, organic solvent or mixture

[
  {
    "Compound": "NC(=O)c1nc[nH]c1O [Compound A, 4-carbamoyl-5-hydroxyimidazole]",
    "solubility": "~3000 µg/mL"
  }
]

* * *

- Protocol summary: Solubility in solutions of basic substances (Experimental Example 7)
- Assay type: physicochemical
- Condition set: pH 8.2; 5% L-lysine; pH of solvent 8.20

[
  {
    "Compound": "NC(=O)c1nc[nH]c1O [Compound A, 4-carbamoyl-5-hydroxyimidazole]",
    "solubility [mg/mL]": 10.7
  }
]

* * *

- Protocol summary: Solubility in aqueous solutions of surfactants/additives and non-aqueous vehicles (Experimental Example 6)
- Assay type: physicochemical
- Condition set: polyethylene glycol, organic solvent or mixture
Result type: solubility

[
  {
    "Compound": "NC(=O)c1nc[nH]c1O [Compound A, 4-carbamoyl-5-hydroxyimidazole]",
    "Result type": "solubility",
    "Recorded measurement": "< 2000 µg/mL"
  }
]

* * *

- Protocol summary: Solubility in aqueous solutions of surfactants/additives and non-aqueous vehicles (Experimental Example 6)
- Type: physicochemical
- Condition set: 5% tartaric acid

[
  {
    "Compound": "NC(=O)c1nc[nH]c1O [Compound A, 4-carbamoyl-5-hydroxyimidazole]",
    "solubility": "7000 µg/mL"
  }
]

* * *

- Protocol summary: Solubility in aqueous solutions of surfactants/additives and non-aqueous vehicles (Experimental Example 6)
- Type: physicochemical
- Condition set: cotton seed oil, organic solvent or mixture

[
  {
    "Molecule": "NC(=O)c1nc[nH]c1O [Compound A, 4-carbamoyl-5-hydroxyimidazole]",
    "solubility": "< 2000 µg/mL"
  }
]

* * *

- Protocol summary: Solubility in aqueous solutions of surfactants/additives and non-aqueous vehicles (Experimental Example 6)
- Type: physicochemical
- Condition set: propylene glycol, organic solvent or mixture

[
  {
    "Compound": "NC(=O)c1nc[nH]c1O [Compound A, 4-carbamoyl-5-hydroxyimidazole]",
    "solubility": "~5000 µg/mL"
  }
]

* * *

- Protocol summary: Solubility in solutions of basic substances (Experimental Example 7)
- Format: physicochemical
- Condition set: pH 8.69; 5% L-arginine; pH of solvent 8.69
Result type: solubility (mg/mL)

[
  {
    "Compound": "NC(=O)c1nc[nH]c1O [Compound A, 4-carbamoyl-5-hydroxyimidazole]",
    "Recorded measurement": 33.5
  }
]

* * *

- Protocol summary: Solubility in solutions of basic substances (Experimental Example 7)
- Format: physicochemical
- Condition set: pH 8.5; 0.5% NaOH; pH of solvent 8.50

[
  {
    "Compound": "NC(=O)c1nc[nH]c1O [Compound A, 4-carbamoyl-5-hydroxyimidazole]",
    "solubility, mg/mL": 21.4
  }
]

* * *

- Protocol summary: Solubility in aqueous solutions of surfactants/additives and non-aqueous vehicles (Experimental Example 6)
- Format: physicochemical
- Condition set: 5% sodium lauryl sulfate
Result type: solubility (µg/mL)

[
  {
    "Compound": "NC(=O)c1nc[nH]c1O [Compound A, 4-carbamoyl-5-hydroxyimidazole]",
    "Recorded measurement": 4700
  }
]

Cited source: patent US4582845A
